In this section we review reported Activity values for a set of molecules.
Tested on: Streptococcus mutans
Experiment: Antibacterial activity against Streptococcus mutans ATCC 25175 assessed as effect on planktonic growth at 0.68 ug/ml after 20 hrs relative to control
Format: functional

Past entries and their recorded results:
INSERT INTO assay_data (molecule, endpoint_result) VALUES
  ('COc1ccc(Cl)cc1C1=C(Br)C(=O)N(CC(C)C)/C1=C\c1ccccc1Br', '11%'),
  ('COc1cccc(/C=C2/C(c3cc(Cl)ccc3OC)=C(Br)C(=O)N2CC(C)C)c1', '-17.3%'),
  ('COc1cccc(/C=C2\C(c3cc(Cl)ccc3OC)=C(Br)C(=O)N2CC(C)C)c1', '-1.7%');

IN: Endpoint output: Activity of COc1ccc(Br)cc1C1=C(Br)C(=O)O/C1=C\c1cccc(Cl)c1 . Value?
OUT: 8.4%

IN: Endpoint output: Activity of COc1ccc(C)cc1C1=C(Br)C(=O)N(CC(C)C)C1(O)Cc1cccc(Cl)c1 (stereo not drawn) . Value?
OUT: 1.1%

IN: Endpoint output: Activity of COc1ccc(C)cc1C1=C(Br)C(=O)N(CC(C)C)/C1=C\c1cccc(Cl)c1 . Value?
OUT: -6%

IN: Endpoint output: Activity of COc1ccc(Br)cc1C1=C(Br)C(=O)N(CC(C)C)/C1=C\c1cccc(Cl)c1 . Value?
OUT: 11.4%

IN: Endpoint output: Activity of COc1ccc(Br)cc1C1=C(Br)C(=O)N(CC(C)C)/C1=C\c1ccc(Br)cc1 . Value?
OUT: 5.8%

IN: Endpoint output: Activity of COc1ccc(C)cc1C1=C(Br)C(=O)N(CC(C)C)/C1=C/c1cccc(Cl)c1 . Value?
OUT: -2.3%

IN: Endpoint output: Activity of COc1ccc(C)cc1C1=C(Br)C(=O)N(CC(C)C)/C1=C\c1ccccc1Cl . Value?
OUT: -2.1%

IN: Endpoint output: Activity of COc1cccc(CC2(O)C(c3cc(Cl)ccc3OC)=C(Br)C(=O)N2CC(C)C)c1 (stereo not drawn) . Value?
OUT: -12.5%

IN: Endpoint output: Activity of COc1ccccc1C1=C(Br)C(=O)O/C1=C\c1ccc(C(F)(F)F)cc1 . Value?
OUT: -1.7%

IN: Endpoint output: Activity of COc1ccccc1C1=C(Br)C(=O)N(CC(C)C)/C1=C/c1ccc(C(F)(F)F)cc1 . Value?
OUT: 6%

IN: Endpoint output: Activity of COc1ccc(Br)cc1C1=C(Br)C(=O)N(CC(C)C)/C1=C/c1ccc(Br)cc1 . Value?
OUT: 14.4%

IN: Endpoint output: Activity of COc1ccc(Br)cc1C1=C(Br)C(=O)N(CC(C)C)C1(O)Cc1ccc(Br)cc1 (stereo not drawn) . Value?
OUT: -8%

IN: Endpoint output: Activity of COc1ccc(C)cc1C1=C(Br)C(=O)N(CC(C)C)C1(O)Cc1ccccc1Cl (stereo not drawn) . Value?
OUT: 13%

---

Test system: Staphylococcus epidermidis
Test: Antibacterial activity against Staphylococcus epidermidis ATCC 35547 assessed as effect on planktonic growth at 0.34 ug/ml after 20 hrs relative to control
Format: functional
experimental endpoint: Activity (%)
Give just the numeric value; % need not be written.

Past entries and their recorded results:
INSERT INTO assay_data (compound, units, endpoint_result) VALUES
  ('COc1ccc(Br)cc1C1=C(Br)C(=O)N(CC(C)C)C1(O)Cc1ccc(Br)cc1 (stereo not given)', '%', 4.3),
  ('COc1ccc(Cl)cc1C1=C(Br)C(=O)N(CC(C)C)/C1=C/c1ccccc1Br', '%', 5.5),
  ('COc1ccccc1C1=C(Br)C(=O)N(CC(C)C)C1(O)Cc1ccc(C(F)(F)F)cc1 (stereo not given)', '%', 1.9),
  ('COc1ccc(Br)cc1C1=C(Br)C(=O)N(CC(C)C)/C1=C\c1cccc(Cl)c1', '%', 6.4),
  ('COc1ccc(Br)cc1C1=C(Br)C(=O)N(CC(C)C)/C1=C\c1ccc(Br)cc1', '%', 14.1),
  ('COc1ccccc1C1=C(Br)C(=O)O/C1=C\c1ccc(C(F)(F)F)cc1', '%', -14.8),
  ('COc1ccc(Cl)cc1C1=C(Br)C(=O)O/C1=C\c1ccccc1Br', '%', 51.8),
  ('COc1ccc(C)cc1C1=C(Br)C(=O)N(CC(C)C)C1(O)Cc1ccccc1Cl (stereo not given)', '%', 24.8),
  ('COc1cccc(/C=C2/C(c3cc(Cl)ccc3OC)=C(Br)C(=O)N2CC(C)C)c1', '%', -0.7),
  ('COc1ccc(C)cc1C1=C(Br)C(=O)O/C1=C\c1ccccc1Cl', '%', -0.1);

IN: Find Activity (Staphylococcus epidermidis) for the entry COc1ccc(Br)cc1C1=C(Br)C(=O)N(CC(C)C)/C1=C/c1ccc(Br)cc1
OUT: 0.4

IN: Find Activity (Staphylococcus epidermidis) for the entry COc1ccc(C)cc1C1=C(Br)C(=O)N(CC(C)C)/C1=C/c1ccccc1Cl
OUT: 3.6

Where do these numbers come from? They come from ChEMBL document CHEMBL3112480.
